Origin of values: PubChem BioAssay (NCI)

# Test system: MDA-MB-231 breast
# PROCEDURE DETAILS: NCI tumour cell line growth inhibition, 48 h
REPORTED ENDPOINT: TGI

# example entries with known answers
{"columns": ["COMPOUND", "TGI"],
 "data": [
  ["CC(=O)OC12c3ccccc3-c3ccccc3C1C(C(=O)O)C2C(=O)O (configuration not stated)", "> 10 µM"],
  ["CC(C)c1cccc(O)c(=O)c1", "> 75 µg/mL"],
  ["O=C(/C=C1\\C(=O)N(Cc2ccccc2)c2ccccc21)c1ccc(OCCN2CCCCC2)cc1", "3.88 µM"]
]}

Provide TGI values for the following items, in order.
1. CC(=O)/C=C/C1=C(c2csc3ccccc23)c2ccccc2CC1
2. Cc1c(N)nc(C(CC(N)=O)NCC(N)C(N)=O)nc1C(=O)NC(C(=O)NC(C)C(O)C(C)C(=O)NC(C(=O)NCCc1nc(-c2nc(C(=O)NCCCNC(C)c3ccccc3)cs2)cs1)C(C)O)C(OC1OC(CO)C(O)C(O)C1OC1OC(CO)C(O)C(OC(N)=O)C1O)c1cnc[nH]1 (configuration not stated)
3. Cc1cc2n[n+]3[n-]cc(-c4ccccc4)n3c2cc1[N+](=O)[O-]
4. CC(=O)O[C@H]1C[C@@H](OC(C)=O)[C@@](C)(O)[C@@H]2[C@@H](OC(C)=O)[C@@]3(O)[C@H](/C=C(/CO)[C@H]4O[C@H]4[C@@H](OC(C)=O)[C@@]12C)OC(=O)[C@@H]3C

["69.5 µM", "> 100 µM", "> 100 µM", "> 25 µM"]

---

# Test system: SK-MEL-28 melanoma
# PROCEDURE DETAILS: NCI tumour cell line growth inhibition, 48 h
REPORTED ENDPOINT: TGI

# example entries with known answers
{"columns": ["MOLECULE", "REPORTED ENDPOINT", "RESULT"],
 "data": [
  ["Cc1cc2c(c(S(=O)(=O)c3ccccc3[N+](=O)[O-])c1)NCCC2", "TGI", "> 100 µM"],
  ["COC(=O)[C@@H](C)[C@H]1CC[C@@](C)(CCC2=C(C)CC3C=C(C)CCC3C2(C)C)OO1 (stereo partly drawn)", "TGI", "3.22 µM"],
  ["CC(=O)O[C@H]1C(=O)[C@@]2(C)[C@H]([C@H](OC(=O)c3ccccc3)[C@]3(O)C[C@H](OC(=O)[C@H](OC(=O)OC[C@H]4COC(C)(C)O4)[C@@H](NC(=O)c4ccccc4)c4ccccc4)C(C)=C1C3(C)C)[C@]1(OC(C)=O)CO[C@@H]1C[C@@H]2O", "TGI", "> 33.3 µM"],
  ["Cc1c(Cl)cccc1N=NC(=O)NNc1cccc(Cl)c1C", "TGI", "30.1 µM"],
  ["O=P(Nc1ccccc1)(Oc1ccccc1)N(CCCl)CCCl (stereo not drawn)", "TGI", "> 100 µM"]
]}

Provide TGI values for the following items, in order.
1. CC(C(=O)c1ccccc1)C1(O)C(=O)Nc2ccc(Cl)cc21 (stereo not drawn)
2. CC([C@H]1CC=C2C3CCC4=C[C@@H](N(C)C)CC[C@]4(C)C3CC[C@@]21C)N(C)C (stereo partly drawn)
3. COc1ccc2c(c1)NC1(O)c3ccccc3C(=O)C21O (stereo not drawn)

1. > 100 µM
2. 3.38 µM
3. > 100 µM

---

# Test system: MOLT-4 leukemia
# PROCEDURE DETAILS: NCI tumour cell line growth inhibition, 48 h
REPORTED ENDPOINT: log10 TGI (log10 of the value in µM)
On a log10 scale: recorded TGI, unit µM.

# example entries with known answers
{"columns": ["COMPOUND", "TESTED SYSTEM", "log10 TGI"],
 "data": [
  ["COC(=O)C1CC(OC(C)=O)C=C2C(=O)CCC21 (configuration not stated)", "MOLT-4 leukemia", 1.60],
  ["Cc1c(Cl)cccc1N=NC(=O)NNc1cccc(Cl)c1C", "MOLT-4 leukemia", 1.67],
  ["O=C(Nc1ccc(F)cc1)Nc1ccc(Br)c(C(F)(F)F)c1", "MOLT-4 leukemia", 0.74],
  ["CCOC(=O)/C=C(\\C(=O)OCC)n1cc(Cl)c(=O)n(CC(=O)OCC)c1=O", "MOLT-4 leukemia", 0.78]
]}

Next compound, please.
Entry COC1CCC(OC)C(C2(C3CC(OC)CCC3OC)OC(=O)c3ccccc32)C1 (configuration not stated) , system MOLT-4 leukemia: what log10 TGI was measured?
1.95

---

# Test system: SK-MEL-28 melanoma
# PROCEDURE DETAILS: NCI tumour cell line growth inhibition, 48 h
REPORTED ENDPOINT: TGI (µM)
Give bare numbers, in µM.

{"columns": ["COMPOUND", "TGI (µM)"],
 "data": [
  ["CC(C)C(=O)/C=C/S/C=C/C(=O)C(C)C", 21.1],
  ["COC1=C(Cl)C(=O)c2c(O)ccc(O)c2C1=O", 6.73],
  ["C=CC(=O)N1C/C(=C\\c2ccc([N+](=O)[O-])cc2)C(=O)/C(=C/c2ccc([N+](=O)[O-])cc2)C1", 1.74]
]}

Next compound, please.
Fill in: TGI of C[C@]12CC[C@H]3[C@@H](CC4SC(N)=NC45C/C(=N/NC(N)=O)CC[C@]35C)[C@@H]1CCC2=O (stereo partly specified) is ___
3.1

---

# System: CAKI-1 renal
# PROCEDURE DETAILS: NCI tumour cell line growth inhibition, 48 h
REPORTED ENDPOINT: TGI

Provide TGI values for the following items, in order.
1. NCCCNOCCCN
2. O=P(Nc1ccccc1)(Oc1ccccc1)N(CCCl)CCCl (stereo unspecified)
3. O=C(OC1CN2CCC1CC2)N(c1ccccc1)c1ccccc1 (stereo unspecified)
4. c1ccc(Nc2nn3c(CCCCCCCCc4nnc5sc(Nc6ccccc6)nn45)nnc3s2)cc1

1: > 100 µM; 2: > 100 µM; 3: > 100 µM; 4: > 100 µM

---

# System: SNB-75 CNS
# PROCEDURE DETAILS: NCI tumour cell line growth inhibition, 48 h
REPORTED ENDPOINT: TGI

{"columns": ["COMPOUND", "TGI"],
 "data": [
  ["COc1cc(C(=O)O[C@H](C(=O)NCCN(C)CCNC(=O)[C@@H](OC(=O)c2cc(OC)cc3c(C)cccc23)[C@]2(C)CO2)[C@]2(C)CO2)c2cccc(C)c2c1", "1.02 µM"],
  ["CC(=O)NC(CSC1=C2NC(=O)\\C=C/C=C/C=C\\C(C)C(O)CC(=O)/C(C)=C\\CC(O)/C=C/C(C)C(O)C(C)C=C(C)C(=O)c3c(O)c(C)cc(c3C1=O)C2=O)C(=O)O (stereo not given)", "> 100 µM"],
  ["COC(=O)C(Cc1ccc(N(C)C)cc1)(NC(=O)c1ccccc1)P(=O)(OC)OC (stereo not given)", "> 100 µM"],
  ["Cc1cc2c(c(S(=O)(=O)c3ccccc3[N+](=O)[O-])c1)NCCC2", "> 100 µM"]
]}

Next compound, please.
Fill in: TGI of COc1cc(C2C3=C(CCCC3=O)N(c3ccc(C)cc3)C3=C2C(=O)CCC3)c([N+](=O)[O-])cc1OC is ___
> 100 µM

---

Assignment: determine reported GI50 for the given molecules.
# Test system: HCT-15 colon
# PROCEDURE DETAILS: NCI tumour cell line growth inhibition, 48 h

{"columns": ["MOLECULE", "GI50"],
 "data": [
  ["Cc1cc(OCCOCCC(F)(F)P(=O)(O)O)ccc1CCc1cnc2c(N)nc3cc(CCC(=O)O)ccc3c2c1", "> 100 µM"]
]}

Provide GI50 values for the following items, in order.
1. Cc1ccc2c(c1)C(=O)c1c-2c(OCCCN(C)C)nc2ccccc12
2. O=c1oc2cc(OC/C(=N/O)c3ccc(F)cc3)ccc2c2ccccc12
3. Nc1nc2cc(CC[C@H]3C[C@@H](n4ccc5c(N)ncnc54)[C@H](O)[C@@H]3O)ccc2cc1Br
4. CCCCCC[C@@H](C)NC(=O)c1ccc(Nc2nc3ccccc3c3occc23)cc1

1. 0.548 µM
2. 20.7 µM
3. 11.3 µM
4. 8.93 µM

Provide GI50 values for the following items, in order.
1. C=C1C(=O)O[C@H]2[C@H]1CC/C(COC(=O)OC/C1=C/CC[C@@]3(C)O[C@H]3[C@H]3OC(=O)[C@@H](CN(C)C)[C@@H]3CC1)=C\CC[C@@]1(C)O[C@@H]21
2. Cc1c(N)nc(C(CC(N)=O)NCC(N)C(N)=O)nc1C(=O)NC(C(=O)NC(C)C(O)C(C)C(=O)NC(C(=O)NCCc1nc(-c2nc(C(=O)NCCCNC(C)c3ccccc3)cs2)cs1)C(C)O)C(OC1OC(CO)C(O)C(O)C1OC1OC(CO)C(O)C(OC(N)=O)C1O)c1cnc[nH]1 (configuration not stated)

1: 1.04 µM; 2: 26.8 µM
